biological target: Sterol O-acyltransferase 1 (Rattus norvegicus); experiment: In vitro inhibitory activity against acyl coenzyme A:cholesterol acyltransferase (ACAT); design: concentration or dose not given beside the values; settings: concentration not given here
metric.name: inhibition

molecule: CCOC(=O)c1ccc(NCc2ccc(OC)cc2)cc1
metric.name: inhibition
result: 49%
--
molecule: CCOC(=O)c1ccc(NCCCc2ccco2)cc1
metric.name: inhibition
result: 56%
--
molecule: O=C(/C=C/c1ccc(Cl)cc1)Nc1ccc(C(=O)O)cc1
metric.name: inhibition
result: 41%
--
molecule: CCOC(=O)c1ccc(NCCCCCc2ccccc2)cc1
metric.name: inhibition
result: 69%
--
molecule: O=C(O)c1ccc(NCCCCCCCCCCCCc2cccs2)cc1
metric.name: inhibition
result: < 57%
--
molecule: CCOC(=O)c1ccc(NCCCCCCCCCCc2ccccc2)cc1
metric.name: inhibition
result: < 63%
--
molecule: CCCCCCCCCCCCCCCCNc1ccc(C(=O)OC)cc1
metric.name: inhibition
result: 0%
--
molecule: CCOC(=O)c1ccc(NCCCc2ccc(C)cc2)cc1
metric.name: inhibition
result: 31%
--
molecule: O=C(O)c1ccc(NC/C=C/c2ccc(Cl)cc2)cc1
metric.name: inhibition
result: 26%
--
molecule: O=C(O)Cc1ccc(NCCCc2ccc(Cl)cc2)cc1
metric.name: inhibition
result: 9%
--
molecule: CCOC(=O)c1ccc(NCCCCCCc2ccco2)cc1
metric.name: inhibition
result: 37%
--
molecule: Cc1ccc(CCCNc2ccc(C(=O)O)cc2)cc1
metric.name: inhibition
result: 49%
--
molecule: Cl.O=C(O)c1ccc(NCCCCCCCCCCCn2ccnc2)cc1
metric.name: inhibition
result: 22%
--
molecule: O=C(O)c1ccc(NCCc2cccs2)cc1
metric.name: inhibition
result: 5%
--
molecule: O=C(O)c1ccc(NCCCCCCCCCC/C=C/c2cccs2)cc1
metric.name: inhibition
result: < 53%
--
molecule: O=C(O)c1ccc(NCCCc2ccc([N+](=O)[O-])cc2)cc1
metric.name: inhibition
result: 18%
--
molecule: CCOC(=O)c1ccc(N(CC)CCCc2ccc(Cl)cc2)cc1
metric.name: inhibition
result: 48%
--
molecule: COc1ccc(CCCNc2ccc(C(=O)O)cc2)cc1
metric.name: inhibition
result: 38%
--
molecule: CCOC(=O)c1ccc(NC(=O)/C=C/c2ccc(OC)cc2)cc1
metric.name: inhibition
result: 52%
--
molecule: CCOC(=O)c1ccc(NCCCc2ccccc2N)cc1
metric.name: inhibition
result: 43%
--
molecule: O=C(O)c1ccc(NCCCc2cccc(Br)c2)cc1
metric.name: inhibition
result: 18%
--
molecule: CCCCCCCCCCCCCCCCCNc1ccc(C(=O)O)cc1
metric.name: inhibition
result: < 34%
--
molecule: CCOC(=O)c1ccc(NCCCCCCCCCCCCc2cccs2)cc1
metric.name: inhibition
result: < 40%
--
molecule: CCCCCCCCCCCCCCCCNc1ccc(C(=O)OCC)cc1
metric.name: inhibition
result: 8%
--
molecule: CCOC(=O)c1ccc(NCCCc2ccc(Cl)cc2)cc1
metric.name: inhibition
result: 42%
--
molecule: Nc1ccccc1CCCNc1ccc(C(=O)O)cc1
metric.name: inhibition
result: 15%
--
molecule: CCOC(=O)c1ccc(NCCCCCCCCCC/C=C\c2cccs2)cc1
metric.name: inhibition
result: < 47%
--
molecule: CCCCCCCCCCCCCCCCCCNc1ccc(C(=O)O)cc1
metric.name: inhibition
result: < 60%
--
molecule: O=C(O)c1ccc(NCCCCCCc2ccccc2)cc1
metric.name: inhibition
result: 17%
--
molecule: CCCCCCCCCCCCCCCCCCCNc1ccc(C(=O)O)cc1
metric.name: inhibition
result: < 36%
--
molecule: O=C(O)c1ccc(NCCCc2ccccc2)cc1
metric.name: inhibition
result: 18%
--
molecule: CCOC(=O)c1ccc(NCCCCCCc2ccccc2)cc1
metric.name: inhibition
result: 41%
--
molecule: O=C(O)c1ccc(NCCc2ccc(F)cc2)cc1
metric.name: inhibition
result: 0%
--
molecule: CCCCCCCCNc1ccc(C(=O)O)cc1
metric.name: inhibition
result: < 24%
--
molecule: COc1ccc(CNc2ccc(C(=O)O)cc2)cc1
metric.name: inhibition
result: 5%
--
molecule: O=C(O)c1ccc(NCCCCCc2ccccc2)cc1
metric.name: inhibition
result: 26%
--
molecule: CCOC(=O)c1ccc(NCCCCCCCc2ccccc2)cc1
metric.name: inhibition
result: < 54%
--
molecule: COc1ccccc1CCCNc1ccc(C(=O)O)cc1
metric.name: inhibition
result: 0%
--
molecule: CCCCCCCCCCc1ccc(CNc2ccc(C(=O)OCC)cc2)cc1
metric.name: inhibition
result: < 19%
--
molecule: CCCCCCCCCCc1ccc(CNc2ccc(C(=O)O)cc2)cc1
metric.name: inhibition
result: < 51%
--
molecule: O=C(O)c1ccc(NCCc2ccccc2)cc1
metric.name: inhibition
result: 9%
--
molecule: CCOC(=O)c1ccc(NCc2ccc(Cl)cc2)cc1
metric.name: inhibition
result: 33%
--
molecule: CCOC(=O)Cc1ccc(NCCCc2ccc(Cl)cc2)cc1
metric.name: inhibition
result: 91%
--
molecule: O=C(OCC(O)CO)c1ccc(NCCCc2ccc(Cl)cc2)cc1 (stereo unspecified)
metric.name: inhibition
result: 17%
--
molecule: CCOC(=O)c1ccc(NCCCCCCc2ccc(Cl)cc2)cc1
metric.name: inhibition
result: 30%
--
molecule: CCOC(=O)c1ccc(NC(=O)CCc2ccc(C)cc2)cc1
metric.name: inhibition
result: 25%
--
molecule: CCOC(=O)c1ccc(NCCCc2ccc(Cl)c(Cl)c2)cc1
metric.name: inhibition
result: 43%
--
molecule: O=C(O)c1ccc(NCCCCCCCCCCc2ccccc2)cc1
metric.name: inhibition
result: < 44%
--
molecule: CCOC(=O)c1ccc(NC(=O)CCc2ccc(OC)cc2)cc1
metric.name: inhibition
result: 26%
--
molecule: O=C(O)c1ccc(NCc2ccc(OCc3ccccc3)cc2)cc1
metric.name: inhibition
result: 16%
--
molecule: CCCCCCCCc1ccc(CCCNc2ccc(C(=O)O)cc2)s1
metric.name: inhibition
result: < 27%

Origin of measurements: ChEMBL document CHEMBL1122501
